// provenance: patent US20100298302A1

Biological target: recombinant PIM-1 (Homo sapiens)
Assay: PIM-1 kinase assay
Format: biochemical
Conditions: 15 μM ATP; read-out: PIM1: IC50 (15 μM ATP)
Known pIC50 of a selection of molecules
Hey, just a heads up that pIC50 is the negative log base 10 of the concentration in molar.

Completed entries (count: 3):
Cpd Smiles	pIC50
CN(C)CCNc1nc2cc(C(=O)O)ccc2n2cccc12	6.76
O=C(O)c1ccc2c(c1)nc(Nc1ccc3ncccc3c1)c1cccn12	6.62
O=C(O)c1ccc2c(c1)nc(Nc1cccc(F)c1)c1cccn12	6.81

GET /value?item= CN(c1ccccc1F)c1nc2cc(-c3nnn[nH]3)ccc2n2cccc12 &field=pIC50 returns 6.11

# pIC50 (molecule: O=C(O)c1ccc2c(c1)nc(NCCN1CCCCC1)c1cccn12 ) is 6.43

Recorded result, Fc1cc(F)cc(Nc2nc3cc(-c4nnn[nH]4)ccc3n3cccc23)c1 , pIC50: 6.29

---

Target: recombinant PIM-1 (Homo sapiens)
Assay: PIM-1 kinase assay
Type: biochemical
Conditions: 500 nM compound; read-out: PIM1: % inh 500 nM
Measured Quantity: inhibition at 0.5 µM (%)
Answer in %, number only, no unit symbol.

Answered examples (3):
Compound	Measured Quantity	Readout Value
COc1cccc(Nc2nc3cc(C(=O)O)ccc3n3cccc23)c1	inhibition at 0.5 µM	79
CCN1CCCC1CNc1nc2cc(-c3nnn[nH]3)ccc2n2cccc12 (centres unmarked)	inhibition at 0.5 µM	81.5
OCCNc1nc2cc(-c3nnn[nH]3)ccc2n2cccc12	inhibition at 0.5 µM	67.9

inhibition at 0.5 µM in this record for Fc1ccc(Nc2nc3cc(-c4nnn[nH]4)ccc3n3cccc23)cc1 : 73.2

Notebook: CN(c1ccccc1F)c1nc2cc(-c3nnn[nH]3)ccc2n2cccc12 , inhibition at 0.5 µM read as 51.4

The reported value for O=C(O)c1ccc2c(c1)nc(NCCN1CCCCC1)c1cccn12 in terms of inhibition at 0.5 µM is 98.8

Looking up Fc1ccc(Nc2nc3cc(-c4nnn[nH]4)ccc3n3cccc23)cc1Cl , I see its inhibition at 0.5 µM listed as 50.5

Clc1ccccc1Nc1nc2cc(-c3nnn[nH]3)ccc2n2cccc12 yielded inhibition at 0.5 µM of 59.3

---

Target: recombinant PIM-1 (Homo sapiens, UniProt P11309)
Sequence (P11309 whole entry): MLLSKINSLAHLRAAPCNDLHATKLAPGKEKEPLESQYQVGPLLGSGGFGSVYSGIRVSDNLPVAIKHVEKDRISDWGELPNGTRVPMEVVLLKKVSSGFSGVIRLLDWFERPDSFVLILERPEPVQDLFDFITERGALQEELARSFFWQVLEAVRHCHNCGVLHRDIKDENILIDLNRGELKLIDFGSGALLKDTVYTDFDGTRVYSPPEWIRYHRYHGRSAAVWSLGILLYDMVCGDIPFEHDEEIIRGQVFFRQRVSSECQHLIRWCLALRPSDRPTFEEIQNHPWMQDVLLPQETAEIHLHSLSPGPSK
Test: PIM-1 kinase assay
Format: biochemical
Conditions: 500 nM compound; read-out: PIM1: % inh 500 nM
Measured Quantity: inhibition at 0.5 µM (%)
Provide only the numeric value, understood in %.

Example compounds with recorded inhibition at 0.5 µM:
Cpd Smiles	Readout Value
Cc1ccccc1Nc1nc2cc(C(=O)O)ccc2n2cccc12	43.8
O=C(c1ccc2c(c1)[nH]c(=O)c1cccn12)N1CCCNCC1	-0.195
N#Cc1ccc2c(c1)nc(NCc1ccccc1)c1cccn12	-35

Input CN(C)CCNc1nc2cc(-c3nnn[nH]3)ccc2n2cccc12 . Output inhibition at 0.5 µM: 63.5

# compound N#Cc1ccc2c(c1)nc(Cl)c1cccn12 ; its inhibition at 0.5 µM = -35.4

inhibition at 0.5 µM measured on N#Cc1ccc2c(c1)[nH]c(=O)c1cccn12 = -28.6

# inhibition at 0.5 µM (compound: CN1CCN(C(=O)c2ccc3c(c2)[nH]c(=O)c2cccn23)CC1 ) is -31.9

Short answer for NC(=O)c1ccc2c(c1)[nH]c(=O)c1cccn12 : inhibition at 0.5 µM was -22.5

Recorded inhibition at 0.5 µM (compound Clc1cccc(-c2nc3cc(-c4nnn[nH]4)ccc3n3cccc23)c1 ): 25

Entry under test: CC(C)(C)OC(=O)N1CCN(C(=O)c2ccc3c(c2)[nH]c(=O)c2cccn23)CC1 . Its inhibition at 0.5 µM was -27.1

According to the records, this compound O=C(O)c1ccc2c(c1)nc(Nc1ccc3ncccc3c1)c1cccn12 displays inhibition at 0.5 µM of 43.2

For reference, reported inhibition at 0.5 µM for CN(C)CCNc1nc2cc(C#N)ccc2n2cccc12 stands at 20.1

Per the records, this compound ( Clc1ccc(Nc2nc3cc(-c4nnn[nH]4)ccc3n3cccc23)cc1 ) has inhibition at 0.5 µM equal to 57.1

// sample O=C(O)c1ccc2c(c1)nc(Nc1cc(F)cc(Cl)c1)c1cccn12 , its inhibition at 0.5 µM was 83.9
